meta.source: a melting point compilation (Tetko et al.; mined from patent text by program, amines drawn as free bases though some values may be those of a salt)

Assay Endpoint: melting point

A selection of reference data follows.
- Cc1c(C)c2c(c(C)c1N)C(c1ccc(Br)cc1)C(C)(C)O2 (single isomer, unassigned; (+)): 143 to 144 °C
- CC1(CS)C(=O)N2CCCC(C(=O)O)N2C1=O (stereo not given): 209 to 211 °C

-- ask Identify measured melting point corresponding to N#CCCNC(=O)c1cccc(-c2cc3c(ccn3Cc3ccc(Cl)cc3Cl)cn2)c1
-- reply 199 to 200 °C

-- ask Identify measured melting point corresponding to CCOC(=O)c1cc(OCc2ccccc2)cc(OCc2ccccc2)c1
-- reply 63 to 65 °C

-- ask Identify measured melting point corresponding to CCOC(=O)N1CCN(C2=Nc3cc(Br)ccc3N3CCc4cccc2c43)CC1
-- reply 128 to 131 °C

---

The following compounds are listed with their measured melting point values.

• Nc1nc2c(ncn2COC(CO)COC(=O)C2(N)CC2)c(=O)[nH]1 (stereo not drawn) = > 300 °C
• O=C(O)CCCC(=O)c1ccc(O)c(O)c1 = 210 to 215 °C

-- ask Identify measured melting point corresponding to CCOc1nn(Cc2cc(OCc3nc(-c4ccccc4)oc3C)no2)cc1CCC(=O)O
-- reply 142 to 143 °C

---

The following compounds are listed with their measured melting point values.

A selection of reference data follows.
- Cc1cn(C)c2c1N(C(=O)CN1CCN(C)CC1)c1ccccc1NC2=O: 205 to 207 °C
- CC(C)COc1c(-c2ccc(S(N)(=O)=O)cc2)cnn(-c2ccc(F)cc2)c1=O: 132 to 136 °C
- COc1cc(OC)c2c(=O)[nH]c(-c3ccc(OCCO)c(-c4cccc(S(C)=O)c4)n3)nc2c1 (configuration not stated): 272 to 273 °C

-- ask Identify measured melting point corresponding to COC(=O)C1=C(C)NC(C)=C(C(=O)OC)C1c1cccc(NC(=S)NNC(=O)CN2CCC(c3cccc(OC)c3)CC2)c1
-- reply 113 to 116 °C

-- ask Identify measured melting point corresponding to O=C(O)Cc1csc(NC(=O)OCC(Cl)(Cl)Cl)n1
-- reply 164 °C

-- ask Identify measured melting point corresponding to CC1=C(C(=O)OC(C)(C)C)C(c2ccc(F)cc2)C(C(=O)OC(C)(C)C)=C(C)N1
-- reply 149 to 150 °C

-- ask Identify measured melting point corresponding to COc1cc(NC2=NCC3(CN4CCC3CC4)O2)ncn1 (configuration not stated)
-- reply 80 to 85 °C

-- ask Identify measured melting point corresponding to Cc1oc(-c2ccc3ccccc3c2)nc1COc1ccc(C=O)cc1
-- reply 163 to 164 °C

---

Assay Endpoint: melting point

A selection of reference data follows.
• C=C1C(=C)C2OC1c1cc3cccc(OC)c3cc12 (stereo unspecified) = 154 to 155 °C
• CN(C(C)(C)C)S(=O)(=O)CC(N)=O = 105 to 109 °C
• CCCc1nn(CC)c2c(=O)[nH]c(-c3ccccc3OCC)nc12 = 114 to 115 °C
• CCOC(=O)CCC(C#N)(c1cccc(F)c1)N1CCOCC1 (stereo unspecified) = 88 to 90 °C
• Oc1ccc(O)c(-c2nc3ccc(O)cc3o2)c1 = 278 to 280 °C
• COc1ccc(CC(C(N)=O)S(C)=O)cc1C(=O)NCc1ccc(C(F)(F)F)cc1 (stereo unspecified) = 170 to 171 °C
• COc1ccc(CN2C(=O)C(N)C(=O)N(CCC(C)C)c3ccccc32)cc1 (stereo unspecified) = 115 to 116 °C
• Cc1c(F)c(F)c(O)c2c(=O)c(C(=O)O)cn(-c3cc(N)c(F)cc3F)c12 = > 280 °C
• CC1(C)C2CC3CCC(=O)OC3C1C2 (stereo unspecified) = 57 to 60 °C
• CS(=O)(=O)N(CCCl)N(S(C)(=O)=O)S(C)(=O)=O = 154 to 155 °C

-- ask Identify measured melting point corresponding to CCCC(=O)c1cnc2c(C(=O)OC)cccc2c1Nc1ccccc1C
-- reply 113 to 115 °C

-- ask Identify measured melting point corresponding to CCC(C)(C)C1=C(O)C(=O)c2ccccc2C1=O
-- reply 52 °C

-- ask Identify measured melting point corresponding to OCc1cnn2ccc3c(c12)CCO3
-- reply 152 to 154 °C

---

The following compounds are listed with their measured melting point values.

A selection of reference data follows.
• O=C(CCN1CCOCC1)NCc1ccc2c(c1)-c1[nH]nc(-c3ccsc3)c1C2 = 228 to 230 °C
• O=C(O)C1CSC(c2ccc(OCCO[N+](=O)[O-])cc2)N1 (stereo not drawn) = 139 to 141 °C

Okay, now this compound:
-- ask Identify measured melting point corresponding to Cc1ccc(CC2(O)CCNCC2)cc1
-- reply 118 to 121 °C

---

The following compounds are listed with their measured melting point values.

A selection of reference data follows.
* CCOP(=O)(/C=C/c1cn(C)nc1OCc1ccc(OCc2nc(-c3ccco3)oc2C)c(OC)c1)OCC | 72 to 73 °C
* Cc1nsc(OCC(Cl)(Cl)Cl)c1N | 58 to 60 °C
* COC(=O)C1=C(C)NC(C)=C(C(=O)OC)C1c1ccccc1COC(C)=O | 149 to 151 °C
* COCC1OC(n2cnc3c(N)nc(F)nc32)C(O)C1O (stereo not drawn) | 231 to 233 °C
* CSc1ccc(C=CC#N)cc1 | 79 °C
* O=C(O)Cn1c(-c2ccc(F)cc2)nc2cccnc21 | > 250 °C

-- ask Identify measured melting point corresponding to COc1cc(C#N)ccc1-c1cc(-c2cccc(C#N)c2)on1
-- reply 202 to 204 °C

-- ask Identify measured melting point corresponding to CCCCCCCCCCCCc1cc(N)on1
-- reply 48.5 to 49.5 °C

-- ask Identify measured melting point corresponding to COCC(C)(C)NC(=O)C(OC)Oc1ccc2ccc(Br)cc2c1 (stereo not drawn)
-- reply 65 to 67 °C

-- ask Identify measured melting point corresponding to O=Cc1cc(-c2cccc(Cl)c2)c2cc(C(c3ccc(Cl)cc3)c3cccnc3)ccc2n1 (stereo not drawn)
-- reply 168 °C

-- ask Identify measured melting point corresponding to CCCn1ncc2c(=O)[nH]c(-c3cc(C(=O)N4CCN(C)CC4)ccc3OCC)nc21
-- reply 124 to 127 °C

-- ask Identify measured melting point corresponding to CC(C)n1nc(-c2cnc(N)nc2-c2ccccc2Cl)ccc1=O
-- reply 227 to 228 °C

-- ask Identify measured melting point corresponding to CN(CCc1cccc(OCc2ccccc2)c1)c1cnc(-c2ccccc2)c(-c2ccccc2)n1
-- reply 78 to 78.5 °C

---

Assay Endpoint: melting point

A selection of reference data follows.
- O=S(=O)(Nc1cccc(C(=NO)c2cccnc2)c1)c1ccc(Cl)cc1: 170 °C
- ClC(Cl)=Cc1sc(-c2ccccc2)cc1-c1ccccc1: 111 to 113 °C
- N#Cc1cnc2cc(-c3ccc(C=O)cc3)sc2c1Nc1ccc(Oc2ccccc2)cc1: 230 to 232 °C
- CCC(=O)OC(CC)c1ccc(Cl)c2nc3n(c12)CCCN3c1ccc(Cl)cc1Cl (stereo not drawn): 133 to 135 °C
- COC(=O)CCc1cc2nc(C)ccc2n1S(=O)(=O)c1ccccc1: 98 to 115 °C
- COc1ccc(OC(=O)C2CCCc3ccc([N+](=O)[O-])cc32)cc1 (stereo not drawn): 109 to 110 °C

-- ask Identify measured melting point corresponding to CCC(=O)OC1(C(=O)COC(C)=O)CCC2C3CC(C)C4=CC(=O)C=CC4(C)C3C(O)CC21C (stereo not drawn)
-- reply 138 °C

-- ask Identify measured melting point corresponding to CC(C)(C)OC(=O)n1ccc2cnccc21
-- reply 65 °C

---

The following molecules are listed with their measured melting point values.

A selection of reference data follows.
• CC(CC(=O)NCc1ccccc1)C(N)=O (stereo not given) = 127 to 129 °C
• COC(=O)c1cc(OCCOc2cccc3ccccc23)cc(OCCOc2cccc3ccccc23)c1 = 132 to 137 °C
• COc1cccc(CNC(=O)c2cc3c(s2)N(C)CNC3)c1 = 279 to 281 °C
• O=[N+]([O-])c1ccc2c(c1)N(C1CCN(CCc3ccc(F)cc3)CC1)CC2 = 104 to 106 °C
• O=C(O)CC[C@@H](C(=O)OCc1ccccc1)n1c2ccccc2c2ccccc21 = 100 °C
• CC1NC(=O)N(c2ccc(F)c(Cl)c2)C1=O (stereo not given) = 174 to 176 °C

-- ask Identify measured melting point corresponding to CCOc1nn(-c2ccc(C(F)(F)F)cn2)cc1CCOc1cc(CCC(=O)O)n(-c2ccccc2)n1
-- reply 155 to 156 °C

-- ask Identify measured melting point corresponding to CCOCOc1cccc(C(CC#N)N2Cc3c(Cl)ccc(NC(=O)C4CC4)c3C2=O)c1 (stereo not given)
-- reply 200 to 202 °C

-- ask Identify measured melting point corresponding to COC(=O)c1cnc(C(=O)OC)c2ccccc12
-- reply 69 to 70 °C

-- ask Identify measured melting point corresponding to CCCc1nc(C(C)(O)CC)c(C(=O)O)n1Cc1ccc(-c2ccccc2-c2nnn[nH]2)cc1 (stereo not given)
-- reply 174 to 177 °C

-- ask Identify measured melting point corresponding to Cc1cc2c(cc1N)OCO2
-- reply 88 to 89 °C
